// provenance: patent US20240247080A1

target-or-system: T1, NPY2 receptor (human (printed as hNPY2R), UniProt P49146 1-381)
T1 sequence (looked up): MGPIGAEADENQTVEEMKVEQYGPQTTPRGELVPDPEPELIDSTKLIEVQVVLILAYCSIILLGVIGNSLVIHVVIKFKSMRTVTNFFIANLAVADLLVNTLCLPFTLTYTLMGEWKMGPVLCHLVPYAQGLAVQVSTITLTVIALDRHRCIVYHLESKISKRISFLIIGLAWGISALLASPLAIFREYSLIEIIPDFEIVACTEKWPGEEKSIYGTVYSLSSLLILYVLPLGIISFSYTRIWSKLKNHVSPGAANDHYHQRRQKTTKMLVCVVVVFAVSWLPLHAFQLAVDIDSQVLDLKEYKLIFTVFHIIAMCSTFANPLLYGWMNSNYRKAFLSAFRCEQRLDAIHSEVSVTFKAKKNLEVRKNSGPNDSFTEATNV
assay-explanation: cell-based or functional assay
Starred links: 1 amine or outer side, 2 acyl side, 3 side chain; linkers in the order of their positions; H or OH if unused. Non-standard residues stand in square brackets, D forms with d. Groups on a side chain read outwards from the residue. No end group written: not given here. *: point of attachment. C18 diacid = O=C(O)CCCCCCCCCCCCCCCCC(=O)*; γGlu = O=C(O)[C@H](CCC(=O)[*:2])N[*:1]; AEEA = NCCOCCOCC(=O)O; Aib = CC(C)(N)C(=O)O
measure: EC50 hNPY2R 0.5% hP (CreLuc) (nM)
Give just the numeric value; nM need not be written.

binder	reported-result
Y[Aib]EGTFTSDYSI[Aib]LEKQAQ[Aib]AFVEWLIK([AEEA-AEEA-γGlu-γGlu-γGlu-γGlu-C18 diacid])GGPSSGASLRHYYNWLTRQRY-NH2 (also: TFA salt) [Compound 254]	17.8

Problem: I am curious: what EC50 hNPY2R 0.5% hP (CreLuc) value has been reported for Y[Aib]EGTFTSDYSI[Aib]LEKQAQ[Aib]AFVEWLIKGGPEEPASLRHYYNWLTRQRY-NH2 (not fully specified (residue 28); also: TFA salt) [Compound 206] ?
Solution: 13.4
